- Test system: MSSA C2214
- ASSAY_NOTES: Anti-microbial activity test in vitro (agar dilution MIC)
- Type: cell-based, Staphylococcus aureus
- EXPERIMENTAL_CONTEXT: MSSA C2214; Agar Dilution method, Mueller Hinton Agar, 18 hours at 37° C.
EXPERIMENTAL_READOUT: Minimum inhibition concentration (MIC) (µg/mL)
Field: numeric (µg/mL). Do not append units.

Incoming: Recall and state the measured Minimum inhibition concentration (MIC) for CC(=O)NC[C@H]1CN(c2ccc(N3CCC(=CC=O)CC3)c(F)c2)C(=O)O1 [Compound 17] .
Outgoing: 8

Incoming: Note Minimum inhibition concentration (MIC) for the compound shown: CC(=O)NC[C@H]1CN(c2ccc(N3CCC(=CC#N)CC3)c(F)c2)C(=O)O1 [Compound 8]
Outgoing: 4

Incoming: Look up and report measured Minimum inhibition concentration (MIC) for this entry: CC(=O)NC[C@H]1CN(c2ccc(N3CCC(=CC(C)O)CC3)c(F)c2)C(=O)O1 (stereo partly shown) [Compound 22]
Outgoing: 16

Incoming: Please indicate Minimum inhibition concentration (MIC) recorded for CC(=O)NC[C@H]1CN(c2ccc(N3CCC(=CC(C)OC(C)=O)CC3)c(F)c2)C(=O)O1 (stereo partly shown) [Compound 23]
Outgoing: 16
